B1: Twister Ribozyme (parent)
chain: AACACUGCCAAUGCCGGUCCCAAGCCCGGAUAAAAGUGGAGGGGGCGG

- Variants of: B1
- assayMethodText: self-cleavage, relative activity (ratio to wild type); higher = more cleavage; co-transcriptional
Kindly return T if reported self-cleavage is no lower than 0.3; return F if it is lower.

{"columns": ["alteration", "labelClass"],
 "data": [
  ["C8A G38C", "F"],
  ["G17U C25A", "F"],
  ["C21A G47C", "F"],
  ["G42A C46G", "F"],
  ["C19A A22C", "F"],
  ["A1G C21G", "F"],
  ["C25U G44C", "T"],
  ["A11U A34U", "T"],
  ["C9U G47A", "T"],
  ["C9U U37A", "F"],
  ["A4G C19G", "F"],
  ["C21G G29U", "F"],
  ["C8G A22C", "T"],
  ["A30G G47A", "T"],
  ["C9U G29A", "T"],
  ["A2U G29U", "T"],
  ["A23C G43U", "F"],
  ["A10G G43U", "T"],
  ["C8U A11C", "T"],
  ["A10U C46A", "T"],
  ["C21A G38C", "F"],
  ["G16C A40C", "F"],
  ["C19U G42U", "F"],
  ["A11U G41A", "T"],
  ["C9G G24A", "F"],
  ["C14G U18A", "F"],
  ["G13C A34U", "F"],
  ["A11C A22U", "T"],
  ["A11G G28C", "T"],
  ["G28A G39U", "F"],
  ["C14G G24A", "F"],
  ["G16A U31G", "T"],
  ["C20A G39U", "F"],
  ["C5A G44A", "T"],
  ["C3G G17A", "F"],
  ["U12G G43U", "T"],
  ["C25A A32C", "F"],
  ["A4G A33G", "T"],
  ["U37G C46G", "T"],
  ["G36C G44A", "T"],
  ["G29U A33G", "T"],
  ["G7U G41U", "F"],
  ["G13C U31A", "T"],
  ["A22C A33G", "T"],
  ["G28U U31G", "T"],
  ["G13A G38A", "T"],
  ["A10U C46G", "T"],
  ["C8U U37G", "T"],
  ["A4U G48C", "F"],
  ["C5G A33G", "T"],
  ["C15G A32C", "F"],
  ["C27A A34G", "F"],
  ["C3A G43A", "F"],
  ["G29A G36A", "T"],
  ["A2U C8G", "F"],
  ["C3A U12G", "F"],
  ["A30U G38A", "T"],
  ["A30C G44C", "T"],
  ["U18A G43A", "F"],
  ["C20A A23C", "F"],
  ["A11G G29A", "T"],
  ["G7A C8U", "F"],
  ["G29C G44U", "T"],
  ["U18A A34U", "F"],
  ["A2C A23C", "F"],
  ["A33U G44U", "T"],
  ["A4G C27A", "F"],
  ["A11C U12G", "T"],
  ["C15G U31A", "F"],
  ["A11U G17A", "T"],
  ["G7C C19U", "F"],
  ["U18G G44U", "F"],
  ["C15G G28A", "T"],
  ["U12A A35U", "T"],
  ["A11U G44A", "T"],
  ["A22C G29A", "T"],
  ["A10C G47A", "T"],
  ["G28U U37A", "T"]
]}
